Tested on: rodent lifetime carcinogenesis bioassay, tumor incidence TD50
Experiment: carcinogenic potency in animals, long-term in vivo studies, CPDB compilation (AID 1745844)
Conditions: rat; strain Eastern Sprague-Dawley; females; by gavage; site: forestomach; lesion: squamous-cell carcinoma; dosed 70 weeks; study length 70 weeks
measured.quantity: TD50

TD50 for CC1CC(=O)O1 (stereo unspecified) ?
13.8 mg/kg/day

* * *

Tested on: rodent lifetime carcinogenesis bioassay, tumor incidence TD50
Assay: carcinogenic potency in animals, long-term in vivo studies, CPDB compilation (AID 1745844)
Conditions: rat; strain Fischer 344; males; in feed; site: peritoneum; lesion: fibrosarcoma; dosed 78 weeks; study length 104 weeks
measured.quantity: TD50

Which TD50 value is on record for Nc1ccc(S(=O)(=O)c2ccc(N)cc2)cc1 ?
148 mg/kg/day

* * *

Test system: rodent lifetime carcinogenesis bioassay, tumor incidence TD50
Assay: carcinogenic potency in animals, long-term in vivo studies, CPDB compilation (AID 1745844)
Settings: mouse; strain B6C3F1; females; in feed; site: all sites; lesion: lymphoma; dosed 104 weeks; study length 104 weeks
Active and inactive are the calls of the source. No rule for the calls is given here.
measured.quantity: TD50

Consider the compound shown here: C[C@@H]1CCC[C@H](C)N1CCCC(O)(c1ccccc1)c1ccccn1 (stereo partly specified) What is its recorded TD50?
94.6 mg/kg/day (inactive)

* * *

Test system: rodent lifetime carcinogenesis bioassay, tumor incidence TD50
Assay: carcinogenic potency in animals, long-term in vivo studies, CPDB compilation (AID 1745844)
Settings: rat; strain Fischer 344; females; in feed; site: liver; lesion: hepatocellular adenoma + hepatocellular carcinoma + neoplastic nodule; dosed 59 weeks; study length 104 weeks
measured.quantity: TD50
Include the unit right after the number.

Suppose we examine the compound CN(C)c1ccc(Cc2ccc(N(C)C)cc2)cc1 ; what TD50 value has been reported?
203 mg/kg/day

* * *

Test system: rodent lifetime carcinogenesis bioassay, tumor incidence TD50
Assay: carcinogenic potency in animals, long-term in vivo studies, CPDB compilation (AID 1745844)
Conditions: mouse; strain B6C3F1; females; in feed; site: liver; lesion: hepatocellular carcinoma; dosed 104 weeks; study length 104 weeks
Active and inactive are the calls of the source. How the calls were made is not given here.
measured.quantity: TD50

In the examples that follow, each entry is paired with its recorded TD50.
# molecule, TD50
data = [
    ("C[C@@H]1Cc2c(Cl)cc(C(=O)N[C@@H](Cc3ccccc3)C(=O)O)c(O)c2C(=O)O1", "34.8 mg/kg/day"),
    ("C[C@@H]1CCC[C@H](C)N1CCCC(O)(c1ccccc1)c1ccccn1 (stereo partly drawn)", "978 mg/kg/day (inactive)"),
    ("CCCc1c(OCCCCc2nn[nH]n2)ccc(C(C)=O)c1O", "112 mg/kg/day"),
    ("Nc1c(Br)cc(Br)c2c1C(=O)c1ccccc1C2=O", "1530 mg/kg/day"),
    ("Cc1cc(C)nc(NS(=O)(=O)c2ccc(N)cc2)n1", "16500 mg/kg/day"),
    ("CC(C)CCCCCCOC(=O)c1ccccc1C(=O)OCCCCCCC(C)C", "2620 mg/kg/day"),
    ("CC1=C(C(=O)OCCN(Cc2ccccc2)c2ccccc2)C(c2cccc([N+](=O)[O-])c2)C(P2(=O)OCC(C)(C)CO2)=C(C)N1 (stereo not drawn)", "7430 mg/kg/day (inactive)"),
]

For rodent lifetime carcinogenesis bioassay, tumor incidence TD50, provide TD50 of CC(C)(CCCOc1ccc(OCCCC(C)(C)C(=O)O)c(-c2ccccc2)c1)C(=O)O please.
402 mg/kg/day
